Assay: in vivo
Parameters: species or system C57BL/6 mice
Conditions: female, C57BL/6, mouse, ip, 30 mg/kg, Concentration, first series
experimental_endpoint: concentration at 6 h (nM)
Lab book: enter the figure in nM, no units written.

INPUT: I am curious: what concentration at 6 h value has been reported for CCCCCCCC(=O)N[C@H]1[C@H](O[C@H]2O[C@H](CO)[C@@H](O)[C@H](O)[C@H]2NC(=O)CCCCCCC)O[C@H](C[C@@H](O)[C@H]2O[C@@H](n3ccc(=O)[nH]c3=O)[C@H](O)[C@@H]2O)[C@H](O)[C@@H]1O [TUN-8,8, Di-N-octanoyl-tunicamycin] ?
OUTPUT: 210

----------
Experiment: in vivo
Set-up: species or system C57BL/6 mice
Details: female, C57BL/6, mouse, ip, 30 mg/kg, Concentration, second series
experimental_endpoint: concentration at 6 h (nM)
Record the value in nM, omitting the unit from your answer.

INPUT: Please look up its concentration at 6 h: CCCCCCCC(=O)N[C@H]1[C@H](O[C@H]2O[C@H](CO)[C@@H](O)[C@H](O)[C@H]2NC(=O)CCCCCCC)O[C@H](C[C@@H](O)[C@H]2O[C@@H](n3ccc(=O)[nH]c3=O)[C@H](O)[C@@H]2O)[C@H](O)[C@@H]1O
OUTPUT: 260

----------
Tested on: Raji cells
Test: Cell proliferation assay (MTS)
Assay type: cell-based, human
Details: 24 hrs
Listed here are compounds together with their documented LD50 values, Raji.
Just the number please, in µg/mL, no unit attached.

INSERT INTO measurements (compound, tgt, experimental_endpoint, recorded_measurement) VALUES
  ('CCCCCCCCCCC(=O)N[C@H]1[C@H](O[C@H]2O[C@H](CO)[C@@H](O)[C@H](O)[C@H]2NC(=O)CCCCCCCCCC)O[C@H](C[C@@H](O)[C@H]2O[C@@H](n3ccc(=O)[nH]c3=O)[C@H](O)[C@@H]2O)[C@H](O)[C@@H]1O [TUN-11,11, Di-N-undecanoyl-tunicamycin]', 'Raji cells', 'LD50 values, Raji', 103.65),
  ('CC(C)(C)OC(=O)N[C@H]1[C@H](O[C@H]2O[C@H](CO)[C@@H](O)[C@H](O)[C@H]2NC(=O)OC(C)(C)C)O[C@H](C[C@@H](O)[C@H]2O[C@@H](n3ccc(=O)[nH]c3=O)[C@H](O)[C@@H]2O)[C@H](O)[C@@H]1O [TUN-Boc,Boc]', 'Raji cells', 'LD50 values, Raji', 608.9),
  ('CC(=O)N[C@H]1[C@H](O[C@H]2O[C@H](CO)[C@@H](O)[C@H](O)[C@H]2NC(C)=O)O[C@H](C[C@@H](O)[C@H]2O[C@@H](n3ccc(=O)[nH]c3=O)[C@H](O)[C@@H]2O)[C@H](O)[C@@H]1O [TUN-Ac,Ac]', 'Raji cells', 'LD50 values, Raji', 212.30);

INPUT: Requested read-out: LD50 values, Raji. Entry: CCCCCCC(=O)N[C@H]1[C@H](O[C@H]2O[C@H](CO)[C@@H](O)[C@H](O)[C@H]2NC(=O)CCCCCC)O[C@H](C[C@@H](O)[C@H]2O[C@@H](n3ccc(=O)[nH]c3=O)[C@H](O)[C@@H]2O)[C@H](O)[C@@H]1O [TUN-7,7, Di-N-heptanoyl tunicamycin]
OUTPUT: 431.10

INPUT: May I ask what LD50 values, Raji has been recorded for CCCCCCCC(=O)N[C@H]1[C@H](O[C@H]2O[C@H](CO)[C@@H](O)[C@H](O)[C@H]2NC(=O)CCCCCCC)O[C@H](C[C@@H](O)[C@H]2O[C@@H](n3ccc(=O)[nH]c3=O)[C@H](O)[C@@H]2O)[C@H](O)[C@@H]1O [TUN-8,8, Di-N-octanoyl-tunicamycin] ?
OUTPUT: 211.05

INPUT: Name the reported LD50 values, Raji value associated with the compound CCCCCCCCC(=O)N[C@H]1[C@H](O[C@H]2O[C@H](CO)[C@@H](O)[C@H](O)[C@H]2NC(=O)CCCCCCCC)O[C@H](C[C@@H](O)[C@H]2O[C@@H](n3ccc(=O)[nH]c3=O)[C@H](O)[C@@H]2O)[C@H](O)[C@@H]1O [TUN-9,9, Di-N-nonanoyl-tunicamycin]
OUTPUT: 355.57

INPUT: Which LD50 values, Raji is reported for this compound? CCCCCCCCCC(=O)N[C@H]1[C@H](O[C@H]2O[C@H](CO)[C@@H](O)[C@H](O)[C@H]2NC(=O)CCCCCCCCC)O[C@H](C[C@@H](O)[C@H]2O[C@@H](n3ccc(=O)[nH]c3=O)[C@H](O)[C@@H]2O)[C@H](O)[C@@H]1O [TUN-10,10, Di-N-decanoyl-tunicamycin]
OUTPUT: 196.17

----------
Experiment: in vivo
Parameters: species or system C57BL/6 mice
Details: female, C57BL/6, mouse, ip, 30 mg/kg, Concentration, second series
experimental_endpoint: concentration at 24 h (nM)
Enter your answer as a number in nM; do not include the unit.

INPUT: Bench note: what concentration at 24 h did CCCCCCCC(=O)N[C@H]1[C@H](O[C@H]2O[C@H](CO)[C@@H](O)[C@H](O)[C@H]2NC(=O)CCCCCCC)O[C@H](C[C@@H](O)[C@H]2O[C@@H](n3ccc(=O)[nH]c3=O)[C@H](O)[C@@H]2O)[C@H](O)[C@@H]1O [TUN-8,8, Di-N-octanoyl-tunicamycin] show?
OUTPUT: 70

----------
System: B. subtilis EC1524
Test: Micro-broth dilution and drop plate antimicrobial susceptibility test
Type: cell-based, Bacillus subtilis
Conditions: Bacillus subtilis, EC1524, read-out: Minimal Inhibitory Concentration, B. subtilis EC1524
// returns Criterion not met unless MIC is strictly below 6 µg/mL, in which case Criterion met

Examples from the recorded data:
INSERT INTO results (compound, cat) VALUES
  ('CCCCCCCCCCCC(=O)N[C@H]1[C@H](O[C@H]2O[C@H](CO)[C@@H](O)[C@H](O)[C@H]2NC(=O)CCCCCCCCCCC)O[C@H](C[C@@H](O)[C@H]2O[C@@H](n3ccc(=O)[nH]c3=O)[C@H](O)[C@@H]2O)[C@H](O)[C@@H]1O [TUN-12,12, Di-N-dodecanoyl-tunicamycin]', 'Criterion not met'),
  ('CCCCCCCCCC(=O)N[C@H]1[C@H](O[C@H]2O[C@H](CO)[C@@H](O)[C@H](O)[C@H]2NC(=O)CCCCCCCCC)O[C@H](C[C@@H](O)[C@H]2O[C@@H](n3ccc(=O)[nH]c3=O)[C@H](O)[C@@H]2O)[C@H](O)[C@@H]1O [TUN-10,10, Di-N-decanoyl-tunicamycin]', 'Criterion met'),
  ('CCCCCCC(=O)N[C@H]1[C@H](O[C@H]2O[C@H](CO)[C@@H](O)[C@H](O)[C@H]2NC(=O)CCCCCC)O[C@H](C[C@@H](O)[C@H]2O[C@@H](n3ccc(=O)[nH]c3=O)[C@H](O)[C@@H]2O)[C@H](O)[C@@H]1O [TUN-7,7, Di-N-heptanoyl tunicamycin]', 'Criterion not met'),
  ('N[C@H]1[C@H](O[C@H]2O[C@H](CO)[C@@H](O)[C@H](O)[C@H]2N)O[C@H](C[C@@H](O)[C@H]2O[C@@H](n3ccc(=O)[nH]c3=O)[C@H](O)[C@@H]2O)[C@H](O)[C@@H]1O [TUN]', 'Criterion not met'),
  ('CCCCCCCC(=O)N[C@H]1[C@H](O[C@H]2O[C@H](CO)[C@@H](O)[C@H](O)[C@H]2NC(=O)CCCCCCC)O[C@H](C[C@@H](O)[C@H]2O[C@@H](n3ccc(=O)[nH]c3=O)[C@H](O)[C@@H]2O)[C@H](O)[C@@H]1O [TUN-8,8, Di-N-octanoyl-tunicamycin]', 'Criterion met');

INPUT: Determine if CCCCCCCCC(=O)N[C@H]1[C@H](O[C@H]2O[C@H](CO)[C@@H](O)[C@H](O)[C@H]2NC(=O)CCCCCCCC)O[C@H](C[C@@H](O)[C@H]2O[C@@H](n3ccc(=O)[nH]c3=O)[C@H](O)[C@@H]2O)[C@H](O)[C@@H]1O [TUN-9,9, Di-N-nonanoyl-tunicamycin] shows MIC strictly lower than 6 µg/mL.
OUTPUT: Criterion met

INPUT: Lab log: compare recorded MIC with 6 µg/mL; is it strictly lower for CC(C)=CCC[C@H](C)CC(=O)N[C@H]1[C@H](O[C@H]2O[C@H](CO)[C@@H](O)[C@H](O)[C@H]2NC(=O)C[C@@H](C)CCC=C(C)C)O[C@H](C[C@@H](O)[C@H]2O[C@@H](n3ccc(=O)[nH]c3=O)[C@H](O)[C@@H]2O)[C@H](O)[C@@H]1O [TUN-Cit,Cit, Di-N-citronoyl-tunicamycin] ?
OUTPUT: Criterion not met

INPUT: Answer whether the compound CCCCCCCCCCC(=O)N[C@H]1[C@H](O[C@H]2O[C@H](CO)[C@@H](O)[C@H](O)[C@H]2NC(=O)CCCCCCCCCC)O[C@H](C[C@@H](O)[C@H]2O[C@@H](n3ccc(=O)[nH]c3=O)[C@H](O)[C@@H]2O)[C@H](O)[C@@H]1O [TUN-11,11, Di-N-undecanoyl-tunicamycin] has MIC strictly less than 6 µg/mL
OUTPUT: Criterion met
